Entry source: PubChem BioAssay AID2023

test: TOR pathway LAP4-GFP level changes – S. cerevisiae, multiplex flow cytometry, MLPCN library, primary screen (AID 2023); conditions: 3 h, at 10 µM, stronger effect = higher value, median GFP as percent of DMSO wells
About 1,100 (0.34%) of roughly 320,000 compounds were called active. This is one part of a sample in which actives are shown more often than they occur.
observedProperty: GFP response vs DMSO (%)
Return type: number; implicit unit %.

Prompt: Consider the molecule shown here: CCCc1ccc(OCCNC(=O)c2ccco2)cc1 What is its recorded GFP response vs DMSO?
Response: 83.5

Prompt: Consider the molecule shown here: COC(=O)N/N=C/c1cn(CCCOc2ccc(C)cc2)c2ccccc12 What is its recorded GFP response vs DMSO?
Response: 89.7

Prompt: Consider the molecule shown here: CC(C)(C)Nc1nc(-c2ccccn2)nc2ccccc12 What is its recorded GFP response vs DMSO?
Response: 90.7

Prompt: Consider the molecule shown here: COC(=O)Cn1cc(/C=C/[N+](=O)[O-])c2ccccc21 What is its recorded GFP response vs DMSO?
Response: 164

Prompt: Consider the molecule shown here: CCCc1ccc(OCC(=O)NNC(=S)NC(=O)c2ccco2)cc1 What is its recorded GFP response vs DMSO?
Response: 182

Prompt: Consider the molecule shown here: O=c1[nH]c(CSc2ccccc2)nc2c1oc1ccccc12 What is its recorded GFP response vs DMSO?
Response: 107

Prompt: Consider the molecule shown here: Cc1ccc(Oc2nc(-c3ccccn3)nc3ccccc23)cc1 What is its recorded GFP response vs DMSO?
Response: 151

Prompt: Consider the molecule shown here: S=C(NCc1ccco1)NCc1ccccc1Cl What is its recorded GFP response vs DMSO?
Response: 85.2

Prompt: Consider the molecule shown here: O=C(CN1C(=O)NC2(CCCC2)C1=O)NCC1CCCO1 (stereo not drawn) What is its recorded GFP response vs DMSO?
Response: 104

Prompt: Consider the molecule shown here: Cc1c(O)c(C)c2c(c1O)C(=O)C[C@@H](c1ccccc1)O2 What is its recorded GFP response vs DMSO?
Response: 99.7

Prompt: Consider the molecule shown here: CC(Oc1ccc2ccccc2c1)C(=O)NNC(=S)NC(=O)c1ccco1 (stereo not drawn) What is its recorded GFP response vs DMSO?
Response: 237

Prompt: Consider the molecule shown here: CCOC(=O)N1CCN(C(=O)c2cn(C)c3ccc(S(=O)(=O)N(CC)CC)cc3c2=O)CC1 What is its recorded GFP response vs DMSO?
Response: 102

Prompt: Consider the molecule shown here: O=[N+]([O-])c1ccc(S(=O)(=O)Nc2cccc(-c3ccc(N4CCCC4)nn3)c2)cc1 What is its recorded GFP response vs DMSO?
Response: 100

Prompt: Consider the molecule shown here: COc1ccc(C)cc1NC(=O)CSc1cccc[n+]1[O-] What is its recorded GFP response vs DMSO?
Response: 99.3

Prompt: Consider the molecule shown here: O=C(Nc1ccc2ccccc2c1)/C(=C/c1cccc(Br)c1)NC(=O)c1ccco1 What is its recorded GFP response vs DMSO?
Response: 91

Prompt: Consider the molecule shown here: COc1ccc(C(=O)NC(=S)NNC(=O)c2c(-c3ccccc3)noc2C)cc1 What is its recorded GFP response vs DMSO?
Response: 102

Prompt: Consider the molecule shown here: O=C(Nc1ccc(Cl)cc1)c1cccc(OC(=S)N2CCOCC2)c1 What is its recorded GFP response vs DMSO?
Response: 65.6

Prompt: Consider the molecule shown here: COc1cccc(/C=N/Nc2ncc(C(F)(F)F)cc2Cl)c1O What is its recorded GFP response vs DMSO?
Response: 184

Prompt: Consider the molecule shown here: CC(C)Oc1ccc(CCC(=O)NNC(=S)NCc2ccccc2)cc1 What is its recorded GFP response vs DMSO?
Response: 103

Prompt: Consider the molecule shown here: CC(C)[C@@H]1COC(c2cccc(C3=N[C@H](C(C)C)CO3)c2)=N1 What is its recorded GFP response vs DMSO?
Response: 163

Prompt: Consider the molecule shown here: Cc1ccc(OCC(=O)NCCCNC(=O)c2ccco2)cc1C What is its recorded GFP response vs DMSO?
Response: 90

Prompt: Consider the molecule shown here: COc1ccccc1NC(=O)C[n+]1ccccc1 What is its recorded GFP response vs DMSO?
Response: 109

Prompt: Consider the molecule shown here: COc1cnc(-c2ccccn2)nc1Oc1ccc(C(C)(C)C)cc1 What is its recorded GFP response vs DMSO?
Response: 107
